# protocol.summary: Biodistribution in right brain hemisphere of iv dosed C57BL/6JRccHsd mouse dosed 24 hrs after LPS challenge and measured at 80 mins post dose
# Type: ADME, organism-based
# details: read-out: Drug uptake
readout.type: tissue uptake at 80 min (%ID/g)

> print(dat)
                      smiles.representation             readout.type  quantitative.result
1  N#C[C@@H]1CCCN1C(=O)[C@@H]1CCCN1C(=O)CCCc1ccc([123I])cc1  tissue uptake at 80 min                 1.09

---

# protocol.summary: Fraction unbound in iv dosed C57Bl/6JRccHsd mouse plasma measured at 80 mins
# Format: ADME, organism-based
readout.type: fraction unbound at 80 min

> print(dat)
                      smiles.representation  quantitative.result
1  N#C[C@@H]1CCCN1C(=O)[C@@H]1CCCN1C(=O)CCCc1ccc([123I])cc1                 0.15

The values you see were collected from ChEMBL document CHEMBL3232996.
